Tested on: P. falciparum 3D7 growth, pLDH absorbance
Measurement description: blood-stage malaria parasite growth potency – strain 3D7, dose response (AID 2305)
Readout kind: IC50 (nM)
Just the number in nM, nothing appended.

## Task Which IC50 value belongs to `CS(=O)(=O)c1cccc(-c2cnc(N)c3cc(-c4ccc5c(c4)OCO5)ccc23)c1` ?
## Result 1040

## Task Which IC50 value belongs to CC1CCCN(Cc2c(O)ccc3c(=O)c(-c4nc5ccccc5s4)c(N)oc23)C1 (configuration not stated) ?
## Result 140

## Task Which IC50 value belongs to `CCN(CC)CCN(Cc1ccc(-c2ccc(Cl)cc2)cc1)C(=O)Cn1cc(CN(C)C)c(=O)nc1SCc1ccc(F)cc1` ?
## Result 750

## Task Which IC50 value belongs to CC(C)(C)NC(=O)C(c1ccc(F)cc1)N(C(=O)c1ccc(CN2CCOCC2)o1)c1ccc(C2CCCCC2)cc1 (configuration not stated) ?
## Result 920

## Task Which IC50 value belongs to `COc1c(CN2CCCC2)cccc1-c1cc2c(-c3ccc(C(=O)O)c(C(C)C)c3)ccnc2[nH]1` ?
## Result 440

## Task Which IC50 value belongs to Cc1cc(-c2ccc3c(c2)CCN(CCC2CCC(NC(=O)/C=C/c4ccccc4F)CC2)CC3)on1 (configuration not stated) ?
## Result 810

## Task Which IC50 value belongs to `CCOC(=O)Cn1ccc2c(NCc3ccccc3)nc(C)nc21` ?
## Result 370

## Task Which IC50 value belongs to `Cc1nc(N)nc(N)c1CCCOc1ccc(Br)cc1` ?
## Result 490

## Task Which IC50 value belongs to `Cc1cccc2[nH]c(-c3cccc(-c4cccc(CNCCNC(=O)c5ccnn5C)c4)c3)nc12` ?
## Result 190

## Task Which IC50 value belongs to `O=C(CSc1nccn1C1CCCCC1)Nc1cc(C(F)(F)F)ccc1Cl` ?
## Result 400

## Task Which IC50 value belongs to `O=C(N[C@H]1CCCC[C@H]1C(=O)O)c1ccccc1` ?
## Result 780

## Task Which IC50 value belongs to `CC(C)(CNCc1cccc(Oc2cccc(C(F)(F)F)c2)c1)c1nc(-c2ccc(Cl)c(O)c2)c(-c2ccnc(N)n2)[nH]1` ?
## Result 190

## Task Which IC50 value belongs to `Cc1ccc(F)cc1S(=O)(=O)Nc1ccc(CCN2CCC(N3CCCCC3)CC2)cc1` ?
## Result 720

## Task Which IC50 value belongs to `CC(C)NCc1ccc(-c2ccc(-c3nc4ccc(F)cc4[nH]3)cc2)cc1` ?
## Result 210

## Task Which IC50 value belongs to `COc1ccc(CCNCCCCCNCCCc2ccc(Cl)cc2)cc1OC` ?
## Result 810

## Task Which IC50 value belongs to `O=[N+]([O-])c1ccccc1C=NNc1ccnc2ccccc12` ?
## Result 860

## Task Which IC50 value belongs to COc1cc(Nc2nccc(N3CCC(NC(=O)C4COc5ccccc5O4)C3)n2)cc(OC)c1OC (configuration not stated) ?
## Result 920

## Task Which IC50 value belongs to `Cc1sc2nc(CSc3ccccc3)nc(N3CCN(CC(=O)N4CCCC4)CC3)c2c1C` ?
## Result 1260

## Task Which IC50 value belongs to `CCCCNCc1ccc(OCc2cccc(COc3ccc(CNCCCC)cc3)c2)cc1` ?
## Result 320

## Task Which IC50 value belongs to `COc1ccc(C[C@H](N)C(=O)N[C@H]2[C@@H](O)[C@H](n3cnc4c(N(C)C)ncnc43)O[C@@H]2CO)cc1` ?
## Result 300

## Task Which IC50 value belongs to CC[C@H]1CN2CC[C@H]1C[C@H]2C(O)c1cc(OC)nc2ccccc12 (some centres not stated) ?
## Result 140

## Task Which IC50 value belongs to `CCCCCn1c(Sc2ccc(C#N)c([N+](=O)[O-])c2)nnc1-c1cccc(Cl)c1` ?
## Result 770

## Task Which IC50 value belongs to `FC(F)(F)c1cccc(N2CCC(CN3CCC(c4c[nH]c5ccccc45)CC3)CC2)n1` ?
## Result 980

## Task Which IC50 value belongs to `O=C(Nc1cccc(-c2ccc(-c3nc4ccccc4[nH]3)cc2)c1)Nc1ccc2c(c1)OCO2` ?
## Result 670

## Task Which IC50 value belongs to `CCc1cn2c3c(cc(C(=O)N[C@@H](Cc4ccccc4)[C@H](O)CNC4CCCCC4)cc13)N(C)S(=O)(=O)C2` ?
## Result 90

## Task Which IC50 value belongs to `O=S(=O)(NC1=NCCC1)c1cccc(Nc2nc(C(F)(F)F)nc3ccccc23)c1` ?
## Result 950

## Task Which IC50 value belongs to `Cc1cc(N(C)C)nc(Nc2ccc(NC(=O)Nc3ccccc3)cc2)n1` ?
## Result 130

## Task Which IC50 value belongs to `Cc1cccc2[nH]c(-c3ccc(-c4cccc(CNCc5cccc(N)c5)c4)s3)nc12` ?
## Result 520

## Task Which IC50 value belongs to `CCN(CC)CCN(Cc1ccc(-c2ccc(C(F)(F)F)cc2)cc1)C(=O)Cn1c(CCc2ccc(F)c(F)c2F)nc(=O)c2ccccc21` ?
## Result 790

## Task Which IC50 value belongs to `O=C(N[C@H]1CCN(Cc2ccc(OCCN3CCNCC3)c3ccccc23)C1)c1ccc(Cl)c(Cl)c1` ?
## Result 750

## Task Which IC50 value belongs to CC(C)(C)c1ccc(CN2CCC(CNC(=O)c3cc(-c4ccccc4C(F)(F)F)cs3)C2)cc1 (configuration not stated) ?
## Result 1240

## Task Which IC50 value belongs to `CC[C@H](C)CNC(=O)c1cncc(-c2ccc(CNCCOc3ccccc3)cc2)c1` ?
## Result 1110

## Task Which IC50 value belongs to `CN1CCCN(Cc2cccc(-c3ccc(CNC(=O)c4cccc(Cl)c4)c(F)c3)c2)CC1` ?
## Result 190

## Task Which IC50 value belongs to `COc1ccc2nccc([C@@H](O)CN3CCC(NCc4cc5c(F)ccc(F)c5[nH]4)CC3)c2c1` ?
## Result 140

## Task Which IC50 value belongs to `Cc1ccc(Nc2nccc(N(C)c3ccc4c(c3)nc(NC(=O)Cc3ccc(Cl)c(Cl)c3)n4C)n2)cc1S(N)(=O)=O` ?
## Result 1110

## Task Which IC50 value belongs to `CCn1cnc2c(N3CCCS3(=O)=O)cc(C(=O)N[C@@H](Cc3ccccc3)[C@H](O)CNC(C)(C)c3cccc(C(F)(F)F)c3)cc21` ?
## Result 230

## Task Which IC50 value belongs to `CN(C)CCCNc1ncnc2c1[nH]c1ccc(F)cc12` ?
## Result 730

* * *

Test system: P. falciparum 3D7 growth, pLDH absorbance
Measurement description: blood-stage malaria parasite growth potency – strain 3D7, dose response (AID 2305)
Readout kind: pIC50
Schema: pIC50 number; meaning minus log10 of the concentration expressed in molar units.

## Task Which pIC50 value belongs to `CCN(CC)CCOC(=O)C(OC)(c1ccccc1)c1ccccc1` ?
## Result 5.99

## Task Which pIC50 value belongs to `O=S1(=O)NC2(CCN(CCc3ccc(Cl)cc3)CC2)Nc2cc(F)cc(F)c21` ?
## Result 5.84

## Task Which pIC50 value belongs to `Cc1cc(Nc2cccc(C(F)(F)F)c2)nc2ccc(NC(=O)c3ccc(=O)[nH]c3)cc12` ?
## Result 6.31

## Task Which pIC50 value belongs to `COc1ccc(NC(=O)C2CCN(CCCCCNC(=O)/C=C/c3ccc(Cl)c(Cl)c3)CC2)cc1` ?
## Result 6.08

## Task Which pIC50 value belongs to `O=C(Nc1ccc([N+](=O)[O-])cc1Br)c1cc2ccccc2nc1Cl` ?
## Result 6.72

## Task Which pIC50 value belongs to `CN1CCN(CC(=O)Nc2ccc(-c3cccc(-c4nc5ccc(F)cc5[nH]4)c3)cc2)CC1` ?
## Result 6.08

## Task Which pIC50 value belongs to `COc1ccc2nccc([C@@H](O)CN3CCC(CO)(NCc4cc5ccccc5o4)CC3)c2c1` ?
## Result 5.86

## Task Which pIC50 value belongs to `CCOc1ccc2nc(NC(=O)c3csnn3)sc2c1` ?
## Result 6.32

## Task Which pIC50 value belongs to `CCNc1cc(C(=O)N[C@@H](Cc2ccccc2)[C@H](O)CN[C@@H](C)c2ccccc2)cc(N2CCCC2=O)c1` ?
## Result 6.17

## Task Which pIC50 value belongs to `Cc1ccc(NC(=O)c2ccc(N3CCN(c4ccncc4)CC3)cn2)cc1F` ?
## Result 5.80

## Task Which pIC50 value belongs to `O=C(Nc1cccc(-c2cc(-c3c(Cl)cccc3Cl)no2)c1)c1cncc(-c2cccs2)c1` ?
## Result 6.02

## Task Which pIC50 value belongs to `Oc1ccc2[nH]c(-c3cccc(F)c3)nc2c1CN1CCC(O)(c2ccccc2)CC1` ?
## Result 6.00

## Task Which pIC50 value belongs to `COc1c(C2CCN(CCCCNC(=O)c3ccc(-c4ccc(C#N)cc4)nc3)CC2)ccc2c1CCCC2` ?
## Result 6.28

## Task Which pIC50 value belongs to CN1CCCCC1CCc1cc(C(=O)Nc2ccc(-c3ccc(O)cc3)cc2)ccc1O (centres undefined) ?
## Result 5.95

## Task Which pIC50 value belongs to `COc1ccc2nccc([C@@H](O)CN3CCC(NC(=O)/C=C/c4cc([N+](=O)[O-])ccc4OC)CC3)c2c1` ?
## Result 6.59

## Task Which pIC50 value belongs to `CCN(CCCN1CCCCC1)c1cc(C)nc(Nc2ccc3c(c2)CCC3)n1` ?
## Result 6.41

## Task Which pIC50 value belongs to `Cc1ccccc1CN1CCCN(Cc2ccc(C(=O)Nc3ccc(C(C)(C)C)cc3)cc2)CC1` ?
## Result 6.07

## Task Which pIC50 value belongs to `CC(=O)Nc1ccc(C(=O)Nc2cccc(-c3cccc(-c4nc5ccc(C(F)(F)F)cc5[nH]4)c3)c2)cn1` ?
## Result 7.15

## Task Which pIC50 value belongs to `CNS(=O)(=O)CCNCc1ccc(-c2ccc3ncnc(Nc4ccc(OCc5ccccc5)cc4)c3c2)o1` ?
## Result 6.14

Values were extracted from PubChem BioAssay AID2305.
